Measured values drawn from paper PMC7381729 for this set.

experiment: Biodistribution in Daudi xenograft bearing mice; assay type: in vivo, mouse; settings: female, CB-17 SCID, mouse, small intestine, iv, with AMD3100, 50 µg per animal, coinjected (CXCR4 competition), total radioactivity, 1h p.i., coinjection of 50 µg AMD3100/animal; means ± SD, n=3; read-out: Biodistribution small intestine, competition with AMD3100
Where a SMILES comes first, the peptide text is derived from it. Side-chain parts run from the residue outwards. [ ]: non-standard residue; d: D form. The star is where a group is joined. DOTA = O=C(O)CN1CCN(CC(=O)O)CCN(CC(=O)*)CCN(CC(=O)O)CC1; 2Nal = N[C@@H](Cc1ccc2ccccc2c1)C(=O)O; dNMeOrn = CN[C@H](CCCN)C(=O)O; 4Abz = Nc1ccc(C(=O)O)cc1
measurement_type: tissue uptake at 1 h (%ID/g)
One number for each entry, in %ID/g.

Quick one: tissue uptake at 1 h for C[C@@H](NC(=O)[C@@H](CCCNC(=N)N)NC(=O)CN1CCN(CC(=O)O)CCN(CC(=O)O)CCN(CC(=O)O)CC1)C(=O)Nc1ccc(C(=O)NCCC[C@@H]2C(=O)N[C@@H](CCCNC(=N)N)C(=O)N[C@@H](Cc3ccc4ccccc4c3)C(=O)NCC(=O)N[C@H](Cc3ccc(O)cc3)C(=O)N2C)cc1 [[^68Ga]DOTA-r-a-ABA-CPCR4, metal not drawn] (cyclo([2Nal]G[dY][dNMeOrn]([4Abz-dA-dR-DOTA])R)) ?
0.94

----------
Test system: Daudi (human B-cell lymphoma) xenograft bearing CB-17 SCID mice
Assay: Biodistribution in Daudi xenograft bearing mice
Type: in vivo, mouse
Conditions: 1h p.i., tracer only, i.v.; γ-counter; means ± SD, n=4-5 (68Ga: n=4)
Protocol: The biodistribution of selected compounds was investigated in Daudi (human B-cell lymphoma) xenograft bearing female CB-17 SCID mice (6-8 weeks, Charles River, Sulzfeld, Germany), [29]. […] Animals (n=4-5 per group) were injected intravenously with 5-10 MBq (0.08-0.11 nmol peptide per mouse) of the respective ^68Ga- and^ 177Lu-labeled CXCR4 ligands in PBS (100 µL) into the tail vein under isoflurane anesthesia. CXCR4-specificity of binding was determined by coinjection of 50 µg AMD3100 per mouse. […]
Where a SMILES comes first, the peptide text is derived from it. Side-chain parts run from the residue outwards. [ ]: non-standard residue; d: D form. The star is where a group is joined. DOTA = O=C(O)CN1CCN(CC(=O)O)CCN(CC(=O)*)CCN(CC(=O)O)CC1; dTyr(3-I) = N[C@H](Cc1ccc(O)c(I)c1)C(=O)O; 2Nal = N[C@@H](Cc1ccc2ccccc2c1)C(=O)O; dNMeOrn = CN[C@H](CCCN)C(=O)O; 4Amb = NCc1ccc(C(=O)O)cc1; 4Abz = Nc1ccc(C(=O)O)cc1
measurement_type: Biodistribution stomach (%iD/g)
Give bare numbers, in %iD/g.

Provide Biodistribution stomach values for the following items, in order.
1. C[C@@H](NC(=O)[C@@H](CCCNC(=N)N)NC(=O)CN1CCN(CC(=O)O)CCN(CC(=O)O)CCN(CC(=O)O)CC1)C(=O)Nc1ccc(C(=O)NCCC[C@@H]2C(=O)N[C@@H](CCCNC(=N)N)C(=O)N[C@@H](Cc3ccc4ccccc4c3)C(=O)NCC(=O)N[C@H](Cc3ccc(O)c(I)c3)C(=O)N2C)cc1 [[^68Ga]DOTA-r-a-ABA-iodoCPCR4] [metal not drawn] (cyclo([2Nal]G[dTyr(3-I)][dNMeOrn]([4Abz-dA-dR-DOTA])R))
2. C[C@@H](NC(=O)[C@@H](CCCNC(=N)N)NC(=O)CN1CCN(CC(=O)O)CCN(CC(=O)O)CCN(CC(=O)O)CC1)C(=O)Nc1ccc(C(=O)NCCC[C@@H]2C(=O)N[C@@H](CCCNC(=N)N)C(=O)N[C@@H](Cc3ccc4ccccc4c3)C(=O)NCC(=O)N[C@H](Cc3ccc(O)cc3)C(=O)N2C)cc1 [[^177Lu]DOTA-r-a-ABA-CPCR4] [metal not drawn] (cyclo([2Nal]G[dY][dNMeOrn]([4Abz-dA-dR-DOTA])R))
3. C[C@@H](NC(=O)[C@@H](CCCNC(=N)N)NC(=O)CN1CCN(CC(=O)O)CCN(CC(=O)O)CCN(CC(=O)O)CC1)C(=O)Nc1ccc(C(=O)NCCC[C@@H]2C(=O)N[C@@H](CCCNC(=N)N)C(=O)N[C@@H](Cc3ccc4ccccc4c3)C(=O)NCC(=O)N[C@H](Cc3ccc(O)c(I)c3)C(=O)N2C)cc1 [[^177Lu]DOTA-r-a-ABA-iodoCPCR4] [metal not drawn] (cyclo([2Nal]G[dTyr(3-I)][dNMeOrn]([4Abz-dA-dR-DOTA])R))
4. CN1C(=O)[C@@H](Cc2ccc(O)c(I)c2)NC(=O)CNC(=O)[C@H](Cc2ccc3ccccc3c2)NC(=O)[C@H](CCCNC(=N)N)NC(=O)[C@H]1CCCNC(=O)c1ccc(CNC(=O)CN2CCN(CC(=O)O)CCN(CC(=O)O)CCN(CC(=O)O)CC2)cc1 [[^177Lu]PentixaTher, metal not drawn, reference compound] (cyclo([dTyr(3-I)][dNMeOrn]([4Amb-DOTA])R[2Nal]G))

1. 0.93
2. 1.72
3. 1.95
4. 1.2

----------
Assay: Biodistribution in Daudi xenograft bearing mice
Type: in vivo, mouse
Settings: female, CB-17 SCID, mouse, tumor / small intestine, iv, total radioactivity; 48h p.i.; means ± SD, n=4-5 animals; read-out: Tumor/organ ratio t/small intestine
Method: The biodistribution of selected compounds was investigated in Daudi (human B-cell lymphoma) xenograft bearing female CB-17 SCID mice (6-8 weeks, Charles River, Sulzfeld, Germany), [29]. […] Animals (n=4-5 per group) were injected intravenously with 5-10 MBq (0.08-0.11 nmol peptide per mouse) of the respective ^68Ga- and^ 177Lu-labeled CXCR4 ligands in PBS (100 µL) into the tail vein under isoflurane anesthesia. CXCR4-specificity of binding was determined by coinjection of 50 µg AMD3100 per mouse. […]
Where a SMILES comes first, the peptide text is derived from it. Side-chain parts run from the residue outwards. [ ]: non-standard residue; d: D form. The star is where a group is joined. DOTA = O=C(O)CN1CCN(CC(=O)O)CCN(CC(=O)*)CCN(CC(=O)O)CC1; dTyr(3-I) = N[C@H](Cc1ccc(O)c(I)c1)C(=O)O; 2Nal = N[C@@H](Cc1ccc2ccccc2c1)C(=O)O; dNMeOrn = CN[C@H](CCCN)C(=O)O; 4Amb = NCc1ccc(C(=O)O)cc1; 4Abz = Nc1ccc(C(=O)O)cc1
measurement_type: tissue to tissue ratio at 48 h
Numbers only.

CN1C(=O)[C@@H](Cc2ccc(O)c(I)c2)NC(=O)CNC(=O)[C@H](Cc2ccc3ccccc3c2)NC(=O)[C@H](CCCNC(=N)N)NC(=O)[C@H]1CCCNC(=O)c1ccc(CNC(=O)CN2CCN(CC(=O)O)CCN(CC(=O)O)CCN(CC(=O)O)CC2)cc1 [[^177Lu]PentixaTher, metal not drawn, reference compound] (cyclo([dTyr(3-I)][dNMeOrn]([4Amb-DOTA])R[2Nal]G)) : 29
C[C@@H](NC(=O)[C@@H](CCCNC(=N)N)NC(=O)CN1CCN(CC(=O)O)CCN(CC(=O)O)CCN(CC(=O)O)CC1)C(=O)Nc1ccc(C(=O)NCCC[C@@H]2C(=O)N[C@@H](CCCNC(=N)N)C(=O)N[C@@H](Cc3ccc4ccccc4c3)C(=O)NCC(=O)N[C@H](Cc3ccc(O)cc3)C(=O)N2C)cc1 [[^177Lu]DOTA-r-a-ABA-CPCR4, metal not drawn] (cyclo([2Nal]G[dY][dNMeOrn]([4Abz-dA-dR-DOTA])R)) : 55

Next:
Quick one: tissue to tissue ratio at 48 h for C[C@@H](NC(=O)[C@@H](CCCNC(=N)N)NC(=O)CN1CCN(CC(=O)O)CCN(CC(=O)O)CCN(CC(=O)O)CC1)C(=O)Nc1ccc(C(=O)NCCC[C@@H]2C(=O)N[C@@H](CCCNC(=N)N)C(=O)N[C@@H](Cc3ccc4ccccc4c3)C(=O)NCC(=O)N[C@H](Cc3ccc(O)c(I)c3)C(=O)N2C)cc1 [[^177Lu]DOTA-r-a-ABA-iodoCPCR4, metal not drawn] (cyclo([2Nal]G[dTyr(3-I)][dNMeOrn]([4Abz-dA-dR-DOTA])R)) ?
50

----------
assay: Biodistribution in Daudi xenograft bearing mice; type: in vivo, mouse; settings: female, CB-17 SCID, mouse, tumor / colon, iv, total radioactivity; 48h p.i.; means ± SD, n=4-5 animals; read-out: Tumor/organ ratio t/colon
Where a SMILES comes first, the peptide text is derived from it. Side-chain parts run from the residue outwards. [ ]: non-standard residue; d: D form. The star is where a group is joined. DOTA = O=C(O)CN1CCN(CC(=O)O)CCN(CC(=O)*)CCN(CC(=O)O)CC1; dTyr(3-I) = N[C@H](Cc1ccc(O)c(I)c1)C(=O)O; 2Nal = N[C@@H](Cc1ccc2ccccc2c1)C(=O)O; dNMeOrn = CN[C@H](CCCN)C(=O)O; 4Amb = NCc1ccc(C(=O)O)cc1; 4Abz = Nc1ccc(C(=O)O)cc1
measurement_type: tissue to tissue ratio at 48 h

Would you please look over these solved cases?
CN1C(=O)[C@@H](Cc2ccc(O)c(I)c2)NC(=O)CNC(=O)[C@H](Cc2ccc3ccccc3c2)NC(=O)[C@H](CCCNC(=N)N)NC(=O)[C@H]1CCCNC(=O)c1ccc(CNC(=O)CN2CCN(CC(=O)O)CCN(CC(=O)O)CCN(CC(=O)O)CC2)cc1 [[^177Lu]PentixaTher, metal not drawn, reference compound] (cyclo([dTyr(3-I)][dNMeOrn]([4Amb-DOTA])R[2Nal]G)) : 13
C[C@@H](NC(=O)[C@@H](CCCNC(=N)N)NC(=O)CN1CCN(CC(=O)O)CCN(CC(=O)O)CCN(CC(=O)O)CC1)C(=O)Nc1ccc(C(=O)NCCC[C@@H]2C(=O)N[C@@H](CCCNC(=N)N)C(=O)N[C@@H](Cc3ccc4ccccc4c3)C(=O)NCC(=O)N[C@H](Cc3ccc(O)c(I)c3)C(=O)N2C)cc1 [[^177Lu]DOTA-r-a-ABA-iodoCPCR4, metal not drawn] (cyclo([2Nal]G[dTyr(3-I)][dNMeOrn]([4Abz-dA-dR-DOTA])R)) : 19

Quick one: tissue to tissue ratio at 48 h for C[C@@H](NC(=O)[C@@H](CCCNC(=N)N)NC(=O)CN1CCN(CC(=O)O)CCN(CC(=O)O)CCN(CC(=O)O)CC1)C(=O)Nc1ccc(C(=O)NCCC[C@@H]2C(=O)N[C@@H](CCCNC(=N)N)C(=O)N[C@@H](Cc3ccc4ccccc4c3)C(=O)NCC(=O)N[C@H](Cc3ccc(O)cc3)C(=O)N2C)cc1 [[^177Lu]DOTA-r-a-ABA-CPCR4, metal not drawn] (cyclo([2Nal]G[dY][dNMeOrn]([4Abz-dA-dR-DOTA])R)) ?
20
